Hello, the source for this data is patent US20250154109A1, in case you need it.

target: human Nav1.8 (Homo sapiens, UniProt Q9Y5Y9)
Sequence (Q9Y5Y9 whole entry): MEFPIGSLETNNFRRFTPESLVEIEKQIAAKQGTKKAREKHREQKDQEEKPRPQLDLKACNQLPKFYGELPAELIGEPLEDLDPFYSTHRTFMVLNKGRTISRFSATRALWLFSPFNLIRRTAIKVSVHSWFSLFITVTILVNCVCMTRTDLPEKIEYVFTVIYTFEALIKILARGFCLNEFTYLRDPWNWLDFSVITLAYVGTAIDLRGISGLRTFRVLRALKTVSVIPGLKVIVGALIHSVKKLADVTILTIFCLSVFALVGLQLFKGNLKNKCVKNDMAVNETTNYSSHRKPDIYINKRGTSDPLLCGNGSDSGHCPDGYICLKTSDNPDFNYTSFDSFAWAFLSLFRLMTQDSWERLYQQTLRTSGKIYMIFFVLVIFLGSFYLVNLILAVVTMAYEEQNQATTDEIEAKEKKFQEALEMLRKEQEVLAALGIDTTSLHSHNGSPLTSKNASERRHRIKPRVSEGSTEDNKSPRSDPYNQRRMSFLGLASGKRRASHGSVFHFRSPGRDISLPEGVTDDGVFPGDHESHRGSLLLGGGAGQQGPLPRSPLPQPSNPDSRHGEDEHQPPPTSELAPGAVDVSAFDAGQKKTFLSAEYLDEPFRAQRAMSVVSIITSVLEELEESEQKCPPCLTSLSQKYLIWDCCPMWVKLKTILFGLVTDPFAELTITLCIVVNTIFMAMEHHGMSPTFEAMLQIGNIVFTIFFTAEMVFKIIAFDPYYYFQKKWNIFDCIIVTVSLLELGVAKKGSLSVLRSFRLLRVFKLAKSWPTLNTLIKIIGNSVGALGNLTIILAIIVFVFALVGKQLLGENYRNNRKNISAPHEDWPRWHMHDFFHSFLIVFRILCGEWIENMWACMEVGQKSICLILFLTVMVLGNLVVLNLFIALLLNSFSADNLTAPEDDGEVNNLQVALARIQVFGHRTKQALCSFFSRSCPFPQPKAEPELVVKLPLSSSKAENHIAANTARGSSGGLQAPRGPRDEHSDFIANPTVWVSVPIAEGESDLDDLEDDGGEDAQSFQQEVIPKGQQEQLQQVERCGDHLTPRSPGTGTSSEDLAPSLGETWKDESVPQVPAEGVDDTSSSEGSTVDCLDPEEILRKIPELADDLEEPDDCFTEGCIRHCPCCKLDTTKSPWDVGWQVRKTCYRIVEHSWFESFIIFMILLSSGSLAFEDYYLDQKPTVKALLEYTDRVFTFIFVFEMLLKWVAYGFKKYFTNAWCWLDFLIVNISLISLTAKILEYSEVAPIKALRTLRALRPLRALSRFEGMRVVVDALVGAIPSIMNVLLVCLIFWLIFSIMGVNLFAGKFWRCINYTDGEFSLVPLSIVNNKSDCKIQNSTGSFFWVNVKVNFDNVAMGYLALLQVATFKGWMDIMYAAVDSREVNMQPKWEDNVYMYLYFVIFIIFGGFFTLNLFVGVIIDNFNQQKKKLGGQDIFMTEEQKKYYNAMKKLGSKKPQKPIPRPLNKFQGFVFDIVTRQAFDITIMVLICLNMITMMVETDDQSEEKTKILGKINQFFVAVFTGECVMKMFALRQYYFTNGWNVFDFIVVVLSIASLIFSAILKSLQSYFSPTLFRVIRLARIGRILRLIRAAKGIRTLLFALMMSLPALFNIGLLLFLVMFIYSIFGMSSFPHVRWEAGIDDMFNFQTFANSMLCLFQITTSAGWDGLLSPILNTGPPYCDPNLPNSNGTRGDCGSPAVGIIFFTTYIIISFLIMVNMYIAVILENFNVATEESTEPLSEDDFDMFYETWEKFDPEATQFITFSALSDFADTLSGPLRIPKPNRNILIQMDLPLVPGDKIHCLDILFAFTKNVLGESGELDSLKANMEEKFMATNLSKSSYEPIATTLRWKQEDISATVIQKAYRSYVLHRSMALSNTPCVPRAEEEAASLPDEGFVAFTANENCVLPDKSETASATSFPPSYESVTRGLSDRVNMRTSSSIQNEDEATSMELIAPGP
protocol_description: SyncroPatch384PE assay (automated patch clamp)
Assay type: cell-based
condition_set: resting state block (P1 measurement), human Nav1.8/b3 CHO cells, read-out: P1 IC50
Structures can show the parent of a compound that is named as a salt.
// IC50 lookup, one value per entry

Below, 3 compounds whose answers are already recorded.
INSERT INTO assay_data (compound, readout_type, measured_result) VALUES
  ('C=CCCc1ccc(C(=O)Nc2cccc(S(C)(=N)=O)c2)c(N2CCCC(F)(F)CC2)n1 (stereo not drawn) [Example 13]', 'IC50', '≤ 5 nM'),
  ('Cc1c(C#N)c(C(F)(F)F)nc(N2CCCC(F)(F)CC2)c1C(=O)Nc1cccc([S@@](C)(=O)=NC(=O)C(C)(C)N)c1 [Example 227, formate]', 'IC50', '≤ 5 nM'),
  ('Cc1c(C(=O)Nc2cccc([S@@](C)(=O)=NC(=O)CO)c2)c(N2CCCC(F)(F)CC2)nc(C(F)(F)F)c1-c1cnn(C)c1 [Example 191]', 'IC50', '≤ 5 nM');

Lab note: need IC50 for Cc1c(C#CC2CC2)cnc(N2CCCC(F)(F)CC2)c1C(=O)Nc1cccc([S@](C)(=N)=O)c1 [Example 63] on human Nav1.8 (Homo sapiens, UniProt Q9Y5Y9), anyone have it? ≤ 5 nM

Next record, please: Cc1nc(C(F)(F)F)nc(N2CCCC(F)(F)CC2)c1C(=O)Nc1cccc([S@](C)(=N)=O)c1 [Example 135] 5 to 50 nM

###

target: human Nav1.8 (Homo sapiens)
protocol_description: SyncroPatch384PE assay (automated patch clamp)
Type: cell-based
condition_set: inactivated state block (P2 measurement), human Nav1.8/b3 CHO cells, read-out: P2 IC50
pIC50: −log10 of the molar value.
# Lookup of reported pIC50 keyed by entry

For orientation, consider the following solved cases.
INSERT INTO results (compound, target, measured_result) VALUES
  ('C[S@@](=N)(=O)c1cc(NC(=O)c2cc(Cl)c(C(F)(F)F)cc2N2CCO[C@H](C(F)(F)F)C2)ccn1', 'human Nav1.8 (Homo sapiens)', '7.30 to 8.30'),
  ('CS(=O)(=O)c1cccc(NC(=O)c2nnc(C(F)(F)F)cc2N2CCCCCC2)c1', 'human Nav1.8 (Homo sapiens)', '< 6.70'),
  ('Cc1c(F)cnc(N2CCCC(F)(F)CC2)c1C(=O)Nc1cccc([S@](C)(=N)=O)c1', 'human Nav1.8 (Homo sapiens)', '7.30 to 8.30'),
  ('Cc1c(-c2cnn(C)c2)cnc(N2CCCC(F)(F)CC2)c1C(=O)Nc1cccc(S(C)(=N)=O)c1 (stereo not shown)', 'human Nav1.8 (Homo sapiens)', '7.00 to 7.30'),
  ('Cc1c(C(F)(F)F)nnc(N2CCCC(F)(F)CC2)c1C(=O)NC12CC(C(N)=O)(C1)C2', 'human Nav1.8 (Homo sapiens)', '< 6.70'),
  ('Cc1c(-c2cnco2)cnc(N2CCCC(F)(F)CC2)c1C(=O)Nc1cccc([S@](C)(=N)=O)c1', 'human Nav1.8 (Homo sapiens)', '7.30 to 8.30');

Okay, next one:
If you can, please state the reported pIC50 value of Cc1c(C(F)(F)F)nnc(N2CC3(COC3)C2)c1C(=O)Nc1cccc(S(C)(=N)=O)c1 (stereo not shown) . < 6.70

###

target: human Nav1.8 (Homo sapiens)
protocol_description: SyncroPatch384PE assay (automated patch clamp)
Type: cell-based
condition_set: resting state block (P1 measurement), human Nav1.8/b3 CHO cells, read-out: P1 IC50
readout_type: IC50

Some molecules with known IC50 results, for comparison:
INSERT INTO assay_data (smi, target, measured_result) VALUES
  ('Cc1c(Cl)c(-c2cnn(C)c2)nc(N2CCCC(F)(F)CC2)c1C(=O)Nc1ccnc([S@](C)(=N)=O)c1', 'human Nav1.8 (Homo sapiens)', '5 to 50 nM'),
  ('Cc1c(-c2cnn(C)c2)cnc(N2CCCC(F)(F)CC2)c1C(=O)Nc1cccc([S@@](C)(=O)=NC(=O)[C@H](C)O)c1', 'human Nav1.8 (Homo sapiens)', '5 to 50 nM'),
  ('CNCC(=O)N=[S@](C)(=O)c1cccc(NC(=O)c2c(N3CCCC(F)(F)CC3)ncc(-c3cc(F)cc(F)c3)c2C)c1', 'human Nav1.8 (Homo sapiens)', '≤ 5 nM');

Please look at the following molecule next.
Hi! What's the reported IC50 for "Cc1c(N2CC(F)(F)C2)cnc(N2CCCC(F)(F)CC2)c1C(=O)Nc1cccc([S@](C)(=N)=O)c1" on human Nav1.8 (Homo sapiens)? 5 to 50 nM

###

Tested on: rat plasma protein
protocol_description: Rat plasma protein binding by equilibrium dialysis
Format: in vitro ADME
condition_set: equilibrium dialysis
readout_type: Rat Plasma, Unbound % (%)

# example entries with known answers
INSERT INTO assay_data (compound, measured_result) VALUES
  ('Cc1nc(N2CCCC(F)(F)CC2)c(C(=O)Nc2ccnc(S(N)(=O)=O)c2)cc1C(F)(F)F [Compound A, reference compound]', 0.52),
  ('Cc1nc(N2CCCC(F)(F)CC2)c(C(=O)Nc2cccc(S(C)(=N)=O)c2)cc1Cl (stereo in doubt)', 3.0),
  ('NS(=O)(=O)c1cccc(NC(=O)c2cc(C(F)(F)F)nnc2N2CCCC(F)(F)CC2)c1 [Compound B, reference compound]', 15.8),
  ('Cc1nc(N2CCCC(F)(F)CC2)c(C(=O)Nc2ccnc(S(N)(=O)=O)c2)cc1Cl [Compound C, reference compound]', 1.62),
  ('Cc1nc(N2CCCC(F)(F)CC2)c(C(=O)Nc2ccnc(S(C)(=N)=O)c2)cc1C(F)(F)F (centres unmarked)', 3.55);

A. CS(=N)(=O)c1cccc(NC(=O)c2cc(C(F)(F)F)nnc2N2CCCC(F)(F)CC2)c1 (centres unmarked)
B. Cc1nc(N2CCCC(F)(F)CC2)c(C(=O)Nc2cccc([S@](C)(=N)=O)c2)cc1C(F)(F)F
Between the entries labelled A and B , which has a larger Rat Plasma, Unbound % value on record? Identify your pick by its label. A

###

// IC50 lookup, one value per entry
target: human Nav1.8 (Homo sapiens, UniProt Q9Y5Y9)
protocol_description: SyncroPatch384PE assay (automated patch clamp)
Type: cell-based
condition_set: resting state block (P1 measurement), human Nav1.8/b3 CHO cells, read-out: P1 IC50

INSERT INTO results (molecule, readout_type, measured_result) VALUES
  ('Cc1cc(-c2cnn(C)c2)nc(N2CCCC(F)(F)CC2)c1C(=O)Nc1cccc([S@](C)(=N)=O)c1 [Example 151]', 'IC50', '100 to 200 nM'),
  ('Cc1c(-c2ccccc2)cnc(N2CCCC(F)(F)CC2)c1C(=O)Nc1cccc([S@@](C)(=N)=O)c1 [Example 103]', 'IC50', '≤ 5 nM'),
  ('Cc1c(C(F)(F)F)nnc(N2CC3(COC3)C2)c1C(=O)Nc1cccc(S(C)(=N)=O)c1 (stereo not shown) [Example 100]', 'IC50', '> 200 nM'),
  ('C[S@@](=N)(=O)c1cc(NC(=O)c2cc(Cl)c(C(F)(F)F)cc2N2CCO[C@@H](C(F)(F)F)C2)ccn1 [Example 217]', 'IC50', '50 to 100 nM'),
  ('Cc1c(C#CCN(C)C)cnc(N2CCCC(F)(F)CC2)c1C(=O)Nc1cccc([S@](C)(=N)=O)c1 [Example 124]', 'IC50', '100 to 200 nM');

Please report the recorded IC50 for CNCC(=O)N=[S@@](C)(=O)c1cccc(NC(=O)c2c(N3CCCC(F)(F)CC3)nnc(C(F)(F)F)c2C)c1 [Example 44] . 5 to 50 nM

Query C[S@@](=N)(=O)c1cc(NC(=O)c2cc(Cl)c(C(F)(F)F)cc2N2CCCC(F)(F)CC2)ccn1 [Example 199] next ≤ 5 nM

###

// reported pIC50 per item
target: human Nav1.8 (Homo sapiens)
protocol_description: SyncroPatch384PE assay (automated patch clamp)
Format: cell-based
condition_set: resting state block (P1 measurement), human Nav1.8/b3 CHO cells, read-out: P1 IC50
pIC50: −log10 of the molar value.

Below, 3 compounds whose answers are already recorded.
INSERT INTO measurements (compound, measured_result) VALUES
  ('Cc1nc(N2CCCC(F)(F)CC2)c(C(=O)Nc2ccnc(S(=N)(N)=O)c2)cc1C(F)(F)F (centres unmarked)', '≥ 8.30'),
  ('Cc1c(-c2cnn(C)c2)cnc(N2CCCC(F)(F)CC2)c1C(=O)Nc1ccc(F)c([S@](C)(=N)=O)c1', '6.70 to 7.00'),
  ('C[S@@](=N)(=O)c1cccc(NC(=O)c2c(N3CCCC(F)(F)CC3)cnc(C(F)(F)F)c2Cl)c1', '7.30 to 8.30');

// pIC50 lookup, key: Cc1nc(N2CCCC(F)(F)CC2)c(C(=O)Nc2cccc(S(=N)(N)=O)c2)cc1C(F)(F)F (centres unmarked) ≥ 8.30

What do you have for "CNCC(=O)N=[S@](C)(=O)c1cccc(NC(=O)c2c(N3CCCC(F)(F)CC3)ncc(-c3cnn(C)c3)c2C)c1" ? 7.30 to 8.30

Now this one: "Cc1c(-c2ccc(C(F)(F)F)cc2)cnc(N2CCCC(F)(F)CC2)c1C(=O)Nc1cccc([S@](C)(=N)=O)c1" ≥ 8.30

Try Cc1c(-c2ccccc2)nnc(N2CCCC(F)(F)CC2)c1C(=O)Nc1cccc(S(C)(=N)=O)c1 (centres unmarked) next. 7.00 to 7.30

Try this compound next: "Cc1c(C(N)=O)cnc(N2CCCC(F)(F)CC2)c1C(=O)Nc1cccc([S@](C)(=N)=O)c1" < 6.70
